Target: 5-hydroxytryptamine receptor 1A (Homo sapiens, UniProt P08908); note: assay procedure not described here
Sequence (P08908 whole entry): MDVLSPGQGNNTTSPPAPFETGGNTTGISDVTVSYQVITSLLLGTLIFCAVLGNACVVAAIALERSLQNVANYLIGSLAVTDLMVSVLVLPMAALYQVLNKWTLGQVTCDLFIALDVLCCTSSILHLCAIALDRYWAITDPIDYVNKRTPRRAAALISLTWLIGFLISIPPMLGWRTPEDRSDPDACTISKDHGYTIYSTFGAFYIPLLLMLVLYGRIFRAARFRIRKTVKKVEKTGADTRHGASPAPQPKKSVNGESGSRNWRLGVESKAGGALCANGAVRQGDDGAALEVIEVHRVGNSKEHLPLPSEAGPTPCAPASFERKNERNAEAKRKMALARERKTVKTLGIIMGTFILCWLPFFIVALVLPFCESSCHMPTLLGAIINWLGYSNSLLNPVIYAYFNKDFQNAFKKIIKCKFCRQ
Assay type: functional, cell-based
Kindly state AC50 for each of the entries shown.

Dear colleague, could you please provide AC50 for the molecules listed below?
1. OC1(c2ccc(Cl)cc2)c2ccccc2C2=NCCN21 (centres undefined)
2. CC(C)(C)C(=O)OCC(=O)[C@H]1CC[C@H]2[C@@H]3CCC4=CC(=O)CC[C@]4(C)[C@H]3CC[C@]12C [DESOXYCORTICOSTERONE PIVALATE]
3. CC1=C(C)C(=O)C(C(CCCCCC(=O)O)c2ccccc2)=C(C)C1=O (centres undefined)
4. O=C1C(CC[S+]([O-])c2ccccc2)C(=O)N(c2ccccc2)N1c1ccccc1 (centres undefined)

["> 30 µM", "> 10 µM", "> 30 µM", "> 30 µM"]
